These entries and their values trace back to patent US20070197609A1.

assay summary: Solubility in selected solvents
Assay type: physicochemical
condition parameters: methanol, organic solvent or mixture, thermodynamic from solid
observable: solubility (mg/mL)
# unit: mg/mL | format: bare number

// solubility lookup, key: CC(=O)O.CN(CCCNCc1ccc2c(c1)OCO2)c1nc(-n2ccnc2)ns1 [Compound 2 acetate]
58.3

====

assay summary: Solubility in selected solvents
Type: physicochemical
condition parameters: hexanes, organic solvent or mixture, thermodynamic from solid
observable: solubility (µg/mL)
# unit: µg/mL | format: bare number

// solubility lookup, key: CC(=O)O.CN(CCCNCc1ccc2c(c1)OCO2)c1nc(-n2ccnc2)ns1 [Compound 2 acetate]
3

====

assay summary: Solubility in selected solvents
Type: physicochemical
condition parameters: water:ethanol:propylene glycol (40:40:20), aqueous with cosolvent or surfactant or cyclodextrin, thermodynamic from solid
observable: solubility (mg/mL)
# unit: mg/mL | format: bare number

// solubility lookup, key: CC(=O)O.CN(CCCNCc1ccc2c(c1)OCO2)c1nc(-n2ccnc2)ns1 [Compound 2 acetate]
101

====

assay summary: Solubility in selected solvents
Assay type: physicochemical
condition parameters: ethanol, organic solvent or mixture, thermodynamic from solid
observable: solubility (µg/mL)
# unit: µg/mL | format: bare number

// solubility lookup, key: CC(=O)O.CN(CCCNCc1ccc2c(c1)OCO2)c1nc(-n2ccnc2)ns1 [Compound 2 acetate]
8500
